# System: MPNST complex spheroid with HUVEC/MSC, growth, % test/control
# ASSAY_OVERVIEW: Anticancer human tumor MPNST cell line growth inhibition [Asc];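 note: compounds left on spheroids for seven days before reading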
# CONDITION_SET: second compound 0.316 µM; first compound 0.03 µM; stronger effect = lower value
# Source text: Multicellular complex tumor spheroid response to apoptosis pathway targeting inhibitors Alrizomadlin, Pelcitoclax, and Dasminapant in combination with a variety of drugs and investigational agents in selected tumor cell lines […] Compounds. […] If the clinical Cmax for an agent had not been determined, the highest concentration tested was 10 microM. […]
OBSERVED_PROPERTY: viability, T/C (%)

>>> meas_value("Cc1nc(N2CCC3(CC2)COC(C)C3N)c(CO)nc1Sc1ccnc(N)c1Cl (stereo not drawn) + Cc1c(S(C)(=O)=O)c(-c2cc(F)cc(N3CCN(c4ccc(NS(=O)(=O)c5ccc(NC(CCN6CCC(C(=O)OCCCP(=O)(O)O)CC6)CSc6ccccc6)c(S(=O)(=O)C(F)(F)F)c5)cc4)CC3)c2)c(-c2ccc(Cl)cc2)n1C(C)C")
136
>>> meas_value("Cc1nc(N2CCC3(CC2)COC(C)C3N)c(CO)nc1Sc1ccnc(N)c1Cl (stereo not drawn) + CNC(C)C(=O)NC1CN(S(=O)(=O)c2cccc(S(=O)(=O)N3CCC4CCC(C(=O)NC(c5ccccc5)c5ccccc5)N4C(=O)C(NC(=O)C(C)NC)C3)c2)CCC2CCC(C(=O)NC(c3ccccc3)c3ccccc3)N2C1=O")
80.8
>>> meas_value("CCN1C(C(=O)NC23CCC(C(=O)O)(CC2)CC3)C(c2cccc(Cl)c2F)C2(C(=O)Nc3cc(Cl)ccc32)C12CCCCC2 (stereo not drawn) + Cc1c(S(C)(=O)=O)c(-c2cc(F)cc(N3CCN(c4ccc(NS(=O)(=O)c5ccc(NC(CCN6CCC(C(=O)OCCCP(=O)(O)O)CC6)CSc6ccccc6)c(S(=O)(=O)C(F)(F)F)c5)cc4)CC3)c2)c(-c2ccc(Cl)cc2)n1C(C)C")
76.4

====

# Test system: MPNST complex spheroid with HUVEC/MSC, growth, % test/control
# ASSAY_OVERVIEW: Anticancer human tumor MPNST cell line growth inhibition [Asc];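 note: compounds left on spheroids for seven days before reading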
# CONDITION_SET: curve of first compound; second compound 0.316 µM
OBSERVED_PROPERTY: IC50 (nM)

>>> meas_value("O=C(c1ccc(F)c(F)c1Nc1ccc(I)cc1F)N1CC(O)([C@@H]2CCCCN2)C1 + CNC(C)C(=O)NC1CN(S(=O)(=O)c2cccc(S(=O)(=O)N3CCC4CCC(C(=O)NC(c5ccccc5)c5ccccc5)N4C(=O)C(NC(=O)C(C)NC)C3)c2)CCC2CCC(C(=O)NC(c3ccccc3)c3ccccc3)N2C1=O")
868
>>> meas_value("O=C(c1cc(Cc2n[nH]c(=O)c3ccccc23)ccc1F)N1CCN(C(=O)C2CC2)CC1 + CNC(C)C(=O)NC1CN(S(=O)(=O)c2cccc(S(=O)(=O)N3CCC4CCC(C(=O)NC(c5ccccc5)c5ccccc5)N4C(=O)C(NC(=O)C(C)NC)C3)c2)CCC2CCC(C(=O)NC(c3ccccc3)c3ccccc3)N2C1=O")
2510

====

# Tested on: MPNST complex spheroid with HUVEC/MSC, growth, % test/control
# ASSAY_OVERVIEW: Anticancer human tumor MPNST cell line growth inhibition [Asc];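 note: compounds left on spheroids for seven days before reading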
# CONDITION_SET: second compound 10 µM; first compound 3.16 µM; stronger effect = lower value
As shown below, each of these compounds has a reported viability, T/C value.
OBSERVED_PROPERTY: viability, T/C (%)

>>> meas_value("O=C(c1cc(Cc2n[nH]c(=O)c3ccccc23)ccc1F)N1CCN(C(=O)C2CC2)CC1 + Cc1c(S(C)(=O)=O)c(-c2cc(F)cc(N3CCN(c4ccc(NS(=O)(=O)c5ccc(NC(CCN6CCC(C(=O)OCCCP(=O)(O)O)CC6)CSc6ccccc6)c(S(=O)(=O)C(F)(F)F)c5)cc4)CC3)c2)c(-c2ccc(Cl)cc2)n1C(C)C")
68.9
>>> meas_value("C=CC(=O)N1CCN(c2nc(=O)n(-c3c(C)ccnc3C(C)C)c3nc(-c4c(O)cccc4F)c(F)cc23)C(C)C1 (centres undefined) + Cc1c(S(C)(=O)=O)c(-c2cc(F)cc(N3CCN(c4ccc(NS(=O)(=O)c5ccc(NC(CCN6CCC(C(=O)OCCCP(=O)(O)O)CC6)CSc6ccccc6)c(S(=O)(=O)C(F)(F)F)c5)cc4)CC3)c2)c(-c2ccc(Cl)cc2)n1C(C)C")
115
>>> meas_value("C=C(F)C(=O)N1CCN(c2nc(OCC3CCCN3C)nc3c2CCN(c2cccc4cccc(Cl)c24)C3)CC1CC#N (centres undefined) + Cc1c(S(C)(=O)=O)c(-c2cc(F)cc(N3CCN(c4ccc(NS(=O)(=O)c5ccc(NC(CCN6CCC(C(=O)OCCCP(=O)(O)O)CC6)CSc6ccccc6)c(S(=O)(=O)C(F)(F)F)c5)cc4)CC3)c2)c(-c2ccc(Cl)cc2)n1C(C)C")
50.8
>>> meas_value("C#Cc1c(F)ccc2cc(O)cc(-c3ncc4c(N5CC6CCC(C5)N6)nc(OCC56CCCN5CC(F)C6)nc4c3F)c12 (centres undefined) + Cc1c(S(C)(=O)=O)c(-c2cc(F)cc(N3CCN(c4ccc(NS(=O)(=O)c5ccc(NC(CCN6CCC(C(=O)OCCCP(=O)(O)O)CC6)CSc6ccccc6)c(S(=O)(=O)C(F)(F)F)c5)cc4)CC3)c2)c(-c2ccc(Cl)cc2)n1C(C)C")
108
